Consider the following molecules; for each one, report its TERMINAL_BW.
# Species on record: Rattus norvegicus
# experimental.details: Open TG-GATES - Regimen: Single
# Type: toxicity, organism-based, Sprague-Dawley
# Parameters: regimen Single, gender Male, age 6 weeks
# measurement.context: in vivo, po, 0 mg/kg, 6 h, route gavage, dose level Control
Note: a bare number is incomplete; add the unit.

Take a look at these entries with their results.
Entry Cc1cccc(C)c1OCC(C)N (centres undefined) needs its TERMINAL_BW filled in; supply it.
218.2 g

Entry CCOC(=O)C(C)(C)Oc1ccc(Cl)cc1 [CLOFIBRATE] needs its TERMINAL_BW filled in; supply it.
225.4 g

Entry "Cn1cc[nH]c1=S" needs its TERMINAL_BW filled in; supply it.
210.9 g

Record TERMINAL_BW for all entries; do not skip any.
1. C[C@H]1O[C@H](O[C@H]2[C@H](O)[C@@H](O)[C@@H](O[C@H]3[C@H](O)[C@@H](O)C(O)O[C@@H]3CO)O[C@@H]2CO)[C@H](O)[C@@H](O)[C@@H]1N[C@H]1C=C(CO)[C@@H](O)[C@H](O)[C@H]1O (some centres undefined)
2. Cc1ccc2cc3c(ccc4ccccc43)c3c2c1CC3
3. C=C(C)[C@H]1Cc2c(ccc3c2O[C@@H]2COc4cc(OC)c(OC)cc4[C@@H]2C3=O)O1
4. OCCN1CCN(CCCN2c3ccccc3Sc3ccc(C(F)(F)F)cc32)CC1
5. C[C@H]1C(=O)O[C@@H]2CCN3CC=C(COC(=O)[C@](C)(O)[C@]1(C)O)[C@H]23
6. O=[N+]([O-])c1ccc(O)c([N+](=O)[O-])c1

["197.1 g", "206.1 g", "197 g", "196.6 g", "200.2 g", "197.1 g"]

###

Consider the following compounds; for each one, report its LDH.
# Organism: Rattus norvegicus
# experimental.details: Open TG-GATES - Regimen: Daily Repeat
# Type: toxicity, organism-based, Sprague-Dawley
# Set-up: regimen Daily Repeat, gender Male, age 6 weeks
# measurement.context: in vivo, po, 0 mg/kg, […], tissue Plasma, route gavage, dose level Control, time 28 day
Note: a bare number is incomplete; add the unit.

Entry Cn1cc[nH]c1=S [METHIMAZOLE] needs its LDH filled in; supply it.
191.8 IU/L

Record LDH for all entries; do not skip any.
1. OCCN1CCN(CCCN2c3ccccc3Sc3ccc(C(F)(F)F)cc32)CC1 [FLUPHENAZINE]
2. C[C@H]1C(=O)O[C@@H]2CCN3CC=C(COC(=O)[C@](C)(O)[C@]1(C)O)[C@H]23 [MONOCROTALINE]
3. Cc1cccc(C)c1OCC(C)N (centres undefined) [MEXILETINE]
4. CCOC(=O)C(C)(C)Oc1ccc(Cl)cc1 [CLOFIBRATE]
5. O=C1CN(/N=C/c2ccc([N+](=O)[O-])o2)C(=O)N1 [NITROFURANTOIN]
6. O=[N+]([O-])c1ccc(O)c([N+](=O)[O-])c1 [2,4-DINITROPHENOL]
7. C[C@H]1O[C@H](O[C@H]2[C@H](O)[C@@H](O)[C@@H](O[C@H]3[C@H](O)[C@@H](O)C(O)O[C@@H]3CO)O[C@@H]2CO)[C@H](O)[C@@H](O)[C@@H]1N[C@H]1C=C(CO)[C@@H](O)[C@H](O)[C@H]1O (some centres undefined) [ACARBOSE]
8. C=C(C)[C@H]1Cc2c(ccc3c2O[C@@H]2COc4cc(OC)c(OC)cc4[C@@H]2C3=O)O1 [ROTENONE]

80 IU/L
176.4 IU/L
132.8 IU/L
154.6 IU/L
125 IU/L
108.8 IU/L
121 IU/L
62.8 IU/L

###

# Species on record: Rattus norvegicus
# experimental.details: Open TG-GATES - Regimen: Single
# Assay type: toxicity, organism-based, Sprague-Dawley
# Parameters: regimen Single, gender Male, age 6 weeks
# measurement.context: in vivo, po, 0 mg/kg, 9 h, tissue Plasma, route gavage, dose level Control
assay.metric: gamma-GTP (IU/L)
Answers are plain numbers, in IU/L.

Take a look at these entries with their results.
Entry Cc1ccc2cc3c(ccc4ccccc43)c3c2c1CC3 [3-METHYLCHOLANTHRENE] needs its gamma-GTP filled in; supply it.
0.7

Entry C[C@H]1O[C@H](O[C@H]2[C@H](O)[C@@H](O)[C@@H](O[C@H]3[C@H](O)[C@@H](O)C(O)O[C@@H]3CO)O[C@@H]2CO)[C@H](O)[C@@H](O)[C@@H]1N[C@H]1C=C(CO)[C@@H](O)[C@H](O)[C@H]1O (some centres undefined) [ACARBOSE] needs its gamma-GTP filled in; supply it.
1.2

Entry Cc1cccc(C)c1OCC(C)N (centres undefined) [MEXILETINE] needs its gamma-GTP filled in; supply it.
1

Entry C=C(C)[C@H]1Cc2c(ccc3c2O[C@@H]2COc4cc(OC)c(OC)cc4[C@@H]2C3=O)O1 [ROTENONE] needs its gamma-GTP filled in; supply it.
1

Entry O=[N+]([O-])c1ccc(O)c([N+](=O)[O-])c1 [2,4-DINITROPHENOL] needs its gamma-GTP filled in; supply it.
0.2

Entry C[C@H]1C(=O)O[C@@H]2CCN3CC=C(COC(=O)[C@](C)(O)[C@]1(C)O)[C@H]23 [MONOCROTALINE] needs its gamma-GTP filled in; supply it.
1

Entry Cn1cc[nH]c1=S [METHIMAZOLE] needs its gamma-GTP filled in; supply it.
1.2

Entry OCCN1CCN(CCCN2c3ccccc3Sc3ccc(C(F)(F)F)cc32)CC1 [FLUPHENAZINE] needs its gamma-GTP filled in; supply it.
1.2

# next compound below
Entry CCOC(=O)C(C)(C)Oc1ccc(Cl)cc1 [CLOFIBRATE] needs its gamma-GTP filled in; supply it.
0.8

###

# Species: Rattus norvegicus
# experimental.details: Open TG-GATES - Regimen: Single
# Format: toxicity, organism-based, Sprague-Dawley
# Set-up: regimen Single, gender Male, age 6 weeks
# measurement.context: in vivo, po, 0 mg/kg, 3 h, tissue Plasma, route gavage, dose level Control
assay.metric: AST (IU/L)
Numbers only, in IU/L.

Take a look at these entries with their results.
Entry "C[C@H]1C(=O)O[C@@H]2CCN3CC=C(COC(=O)[C@](C)(O)[C@]1(C)O)[C@H]23" needs its AST filled in; supply it.
66.8

Entry C[C@H]1O[C@H](O[C@H]2[C@H](O)[C@@H](O)[C@@H](O[C@H]3[C@H](O)[C@@H](O)C(O)O[C@@H]3CO)O[C@@H]2CO)[C@H](O)[C@@H](O)[C@@H]1N[C@H]1C=C(CO)[C@@H](O)[C@H](O)[C@H]1O (stereo partly drawn) needs its AST filled in; supply it.
72.6

# next molecule below
Entry "Cc1ccc2cc3c(ccc4ccccc43)c3c2c1CC3" needs its AST filled in; supply it.
77.6

###

# Organism: Rattus norvegicus
# experimental.details: Open TG-GATES - Regimen: Single
# Assay type: toxicity, organism-based, Sprague-Dawley
# Set-up: regimen Single, gender Male, age 6 weeks
# measurement.context: in vivo, po, 0 mg/kg, 3 h, tissue Plasma, route gavage, dose level Control
Consider the following compounds; for each one, report its CRE.

Record CRE for all entries; do not skip any.
1. C[C@H]1C(=O)O[C@@H]2CCN3CC=C(COC(=O)[C@](C)(O)[C@]1(C)O)[C@H]23
2. C=C(C)[C@H]1Cc2c(ccc3c2O[C@@H]2COc4cc(OC)c(OC)cc4[C@@H]2C3=O)O1
3. Cc1ccc2cc3c(ccc4ccccc43)c3c2c1CC3
4. Cc1cccc(C)c1OCC(C)N (centres undefined)
5. CCOC(=O)C(C)(C)Oc1ccc(Cl)cc1 [CLOFIBRATE]
6. O=[N+]([O-])c1ccc(O)c([N+](=O)[O-])c1
7. C[C@H]1O[C@H](O[C@H]2[C@H](O)[C@@H](O)[C@@H](O[C@H]3[C@H](O)[C@@H](O)C(O)O[C@@H]3CO)O[C@@H]2CO)[C@H](O)[C@@H](O)[C@@H]1N[C@H]1C=C(CO)[C@@H](O)[C@H](O)[C@H]1O (some centres undefined)
8. OCCN1CCN(CCCN2c3ccccc3Sc3ccc(C(F)(F)F)cc32)CC1

["0.2 mg/dL", "0.3 mg/dL", "0.1 mg/dL", "0.2 mg/dL", "0.4 mg/dL", "0.3 mg/dL", "0.2 mg/dL", "0.5 mg/dL"]

Entry "Cn1cc[nH]c1=S" needs its CRE filled in; supply it.
0.2 mg/dL

###

# Species on record: Rattus norvegicus
# experimental.details: Open TG-GATES - Regimen: Daily Repeat
# Format: toxicity, organism-based, Sprague-Dawley
# Set-up: regimen Daily Repeat, gender Male, age 6 weeks
# measurement.context: in vivo, po, 0 mg/kg, […], tissue Blood, route gavage, dose level Control, time 14 day
Consider the following compounds; for each one, report its MCHC.
Answers are plain numbers, in %.

Entry "C=C(C)[C@H]1Cc2c(ccc3c2O[C@@H]2COc4cc(OC)c(OC)cc4[C@@H]2C3=O)O1" needs its MCHC filled in; supply it.
33.1

Entry "O=[N+]([O-])c1ccc(O)c([N+](=O)[O-])c1" needs its MCHC filled in; supply it.
33.9

Entry "C[C@H]1C(=O)O[C@@H]2CCN3CC=C(COC(=O)[C@](C)(O)[C@]1(C)O)[C@H]23" needs its MCHC filled in; supply it.
35.6

Entry CCOC(=O)C(C)(C)Oc1ccc(Cl)cc1 [CLOFIBRATE] needs its MCHC filled in; supply it.
34.6

More entries:
Entry Cc1cccc(C)c1OCC(C)N (stereo not given) needs its MCHC filled in; supply it.
32.4
